Quick list: cytotoxicity at 10 µM per entry.
test: Toxicity liver stage against HepG2, at 10uM; assay type: cell-based; parameters: test concentration 10 uM, cell line HepG2-A16-CD81EGFP; conditions: human, HepG2-A16-CD81EGFP cells; read-out: INHIBITION
measuredProperty: cytotoxicity at 10 µM (%)

>>> df
                                    molecule  observedmeasurement
 0  COc1cccc(CN2CC(=O)N(c3ccccc3C)CC2C)c1OC (centres undefined)                 2.24
 1         CCNc1ccnc(N2CCN(Cc3ncccc3C)CC2)n1                -5.59
 2   CC(=O)N1CCC(c2cc(C(F)(F)F)nc3nccn23)CC1                -2.11
 3  CCc1[nH]c2c(CNC(=O)C3CCCN(C)C3)cc(C)cc2c1C (centres undefined)                -15.6
 4  C[C@]1(O)CN(CC(=O)N2CCCC2)CC[C@@H]1Oc1cccc(F)c1                -19.1
 5  O=c1cc(-c2ccncc2)nc(-c2ccc(CN3CC[C@@H](O)C3)cc2)[nH]1                 3.03
 6         N#Cc1cc(F)ccc1Cn1cnc(C2CCC2)cc1=O                -5.32
 7  Cc1ccccc1-c1cc(C(=O)N2CCn3c(C)nnc3C2)[nH]n1                -5.82
 8  COc1ccc(CN2CCCC(Nc3cccc(F)c3)C2)cc1O (centres undefined)                 5.76
 9              Cc1cc(NC(N)=O)ccc1OCC(F)(F)F               -0.883
10  CCC(C)Oc1ccc(CNCCNC(C)=O)cc1Cl (centres undefined)                 1.12
11  CCN(CC)C(=O)CSc1nc2cc(C)nc-2c(O)n1Cc1ccco1                 3.49
12  Cc1ccc(C(=O)N2CCc3ccc(=O)n(CCN(C)C)c3CC2)o1                -2.16
13     COc1ccc(-c2nc(CN3CCc4cncnc4C3)no2)cc1                -3.92
14  CCS(=O)(=O)CC(=O)NCC1(c2c(F)cccc2F)CCCC1                -3.32
15  Cc1cnc(C)c(N2CCN(CCCc3[nH]nc(C)c3C)CC2)n1                  -10
16  COc1ccc2c(=O)n(CC3CCCN(C)C3)ccc2c1OC (centres undefined)               -0.391
17          Cc1cc(NC(=O)c2ccc(Br)cc2F)n(C)n1                 3.42
18  CCO[C@@H]1CC[C@H]2[C@H]1OCCN2S(=O)(=O)C1CC1                 5.64
19  c1ccc(Cc2n[nH]c(C3CCOC3)n2)cc1 (centres undefined)                 1.06
20             O=C(NCCO)Nc1cnc2cc(Cl)ccc2c1O                -30.2
21  Cc1cc(CN2CC[C@H]3C(=O)N(c4ccsc4)CCO[C@H]3C2)no1                -69.2
22    CNC(=O)CCN(C)c1nc(-c2ccncc2)nc2c1CCNC2                -1.54
23  O=C(CCCN1CCCCC1)N[C@H](C(=O)O)c1cccc(F)c1F                -13.2
24        Cc1ccc2c(n1)N(C)CCN(C(=O)NC(C)C)C2                -3.38
25  CN(c1ccc2ccccc2c1)S(=O)(=O)c1cc(C(=O)O)cs1                  1.2
26  CCOCC(=O)N1Cc2nccn2CC(CN2CCCC2)C1 (centres undefined)                -76.3
27  Cc1ccc(OCCN2CCC(c3nc(C)n4c(C)csc34)CC2)cc1                 1.94
28        COc1c(C)cnc(CSc2nnc(N3CCCC3)s2)c1C                -13.1

* * *

assay: Toxicity liver stage against HepG2, at 10uM; format: cell-based; parameters: test concentration 10 uM, cell line HepG2-A16-CD81EGFP; conditions: human, HepG2-A16-CD81EGFP cells; read-out: INHIBITION
measuredProperty: cytotoxicity at 10 µM (%)

                                    molecule       measuredproperty  observedmeasurement
 0     COc1c(C)cc(CNCc2ccnc(N3CCOCC3)c2)cc1C  cytotoxicity at 10 µM                 11.9
 1  O=C(Cc1ccc(F)cc1)N1CCN(CC(O)c2ccccc2)CC1 (stereo not drawn)  cytotoxicity at 10 µM                -11.2
 2  Cc1nn(-c2ccc(C(=O)O)cc2)c2c1C(CC(C)C)SCC(=O)N2 (stereo not drawn)  cytotoxicity at 10 µM                -2.43
 3       COCCN1CCC(c2nc3ccc(NC(C)C)cn3n2)CC1  cytotoxicity at 10 µM                -5.26
 4  O=C(CN1CCS(=O)(=O)CC1)NC1CCOc2ccccc21 (stereo not drawn)  cytotoxicity at 10 µM                 5.44
 5  COc1ncccc1C(=O)N1CCCC(c2cc(C)[nH]n2)C1 (stereo not drawn)  cytotoxicity at 10 µM                -7.49
 6  Cc1cccc(C2(CNC(=O)C(C)S(C)(=O)=O)CCCC2)c1 (stereo not drawn)  cytotoxicity at 10 µM                -2.76
 7        Cc1cc(NC(=O)CCN2CCn3c(C)nnc3C2)no1  cytotoxicity at 10 µM                 6.69
 8  Cn1nnc2cc(C(=O)N3CCCC3Cc3ccccc3)ccc21 (stereo not drawn)  cytotoxicity at 10 µM                -14.7
 9  Cc1cn(-c2ccccc2)nc1NS(=O)(=O)c1cc(C(=O)O)cs1  cytotoxicity at 10 µM                -18.9
10  CC(C)N1CCCC(C(=O)N2CCc3c(nc(CC4CC4)[nH]c3=O)C2)C1 (stereo not drawn)  cytotoxicity at 10 µM                -7.41
11  CCOCC(=O)N1C[C@@H](O)[C@H](N(C)Cc2ccc(OC)cc2)C1  cytotoxicity at 10 µM                0.307
12  CCc1n[nH]c(C2CN(CC(=O)N(C)Cc3ccco3)CCO2)n1 (stereo not drawn)  cytotoxicity at 10 µM                 1.07
13  Cc1cc(C)n(CC2CCCN2CCCS(N)(=O)=O)n1 (stereo not drawn)  cytotoxicity at 10 µM                 -4.1
14  O=C(c1ccco1)N1C[C@H]2CCCN(CC3CCOCC3)[C@H]2C1  cytotoxicity at 10 µM               -0.285
15  CC(NC(=O)N1CCCN(CC(F)F)CC1)c1ccco1 (stereo not drawn)  cytotoxicity at 10 µM                -6.03
16   CCN(CC)c1ccc(CNC(=O)c2ccc(=O)[nH]n2)cn1  cytotoxicity at 10 µM                 4.16
17     Cn1c(Cn2ncc(N3CCCCC3)cc2=O)nc2ccccc21  cytotoxicity at 10 µM                 6.01
18     CC(C)c1cc(NCC2(Cn3cccn3)CC2)n2nccc2n1  cytotoxicity at 10 µM                -10.9
19        CCn1ccc(NS(=O)(=O)c2cccc(COC)c2)n1  cytotoxicity at 10 µM                -5.41
20  COCCCc1nc(-c2ccc(S(=O)(=O)N3CCCC3)cc2)cs1  cytotoxicity at 10 µM                -46.3
21  Cc1ccc(C(=O)N2CCc3c(CNc4ncccn4)cncc3C2)o1  cytotoxicity at 10 µM                 9.21
22  CCOC(=O)N1CCN(C(=O)C(CC)n2cccn2)CC1 (stereo not drawn)  cytotoxicity at 10 µM               -0.193

* * *

test: Toxicity liver stage against HepG2, at 10uM; format: cell-based; design: test concentration 10 uM, cell line HepG2-A16-CD81EGFP; conditions: human, HepG2-A16-CD81EGFP cells; read-out: INHIBITION
Quick list: cytotoxicity at 10 µM per entry.
measuredProperty: cytotoxicity at 10 µM (%)

>>> print(df.to_string())
                                    molecule       measuredproperty  observedmeasurement
 0  c1nc(N2CCOCC2)nc2c1COCC21CCN(CC2CC2)C1 (centres undefined)  cytotoxicity at 10 µM                 9.69
 1  CS(=O)(=O)N1CCO[C@@H]2CN(C(=O)c3cccnc3)C[C@@H]2C1  cytotoxicity at 10 µM                 7.64
 2  COc1cccc(-n2c(C)cc(C(=O)NC(C)(C)C(N)=O)c2C)c1  cytotoxicity at 10 µM                   -2
 3  O=c1[nH]c2c(c(=O)n1C1CCCCC1)CCC2NCCc1ccccc1 (centres undefined)  cytotoxicity at 10 µM                -6.91
 4  CN1CCC/C1=N\S(=O)(=O)c1ccc(NC(=O)CCc2cccs2)cc1  cytotoxicity at 10 µM                -8.55
 5  Cc1nnc(C(C)NCC2(c3ccc(F)cc3)CCCCC2)o1 (centres undefined)  cytotoxicity at 10 µM                 2.39
 6  Cc1nccc([C@@H]2C[C@@H]3CCN(S(C)(=O)=O)C[C@H]3O2)n1  cytotoxicity at 10 µM                -11.3
 7                COc1ccccc1OCCNC(=O)NCC(C)C  cytotoxicity at 10 µM                 7.54
 8  O=C(NCC1CCCO1)N1CCN(Cc2ccc3c(c2)CCO3)CC1 (centres undefined)  cytotoxicity at 10 µM                -5.91
 9         CC(=O)Nc1nc(CN2CCn3c(C)nnc3C2)cs1  cytotoxicity at 10 µM                -1.68
10  CCN(CC(C)O)C(=O)Nc1cnn(CCOC)c1 (centres undefined)  cytotoxicity at 10 µM                -11.6
11  CC(C)CN1CCCC2(CCN(c3ccc(C#N)cn3)C2)C1 (centres undefined)  cytotoxicity at 10 µM                 5.22
12  Cc1oncc1C(=O)NCC1(O)CCc2ccccc2C1 (centres undefined)  cytotoxicity at 10 µM                -6.29
13  CC(=O)NC1CCCN(Cc2ccn(C)c(=O)c2)C1 (centres undefined)  cytotoxicity at 10 µM                 2.34
14  O=C(c1ccnnc1)N1CCN2C[C@H](Oc3cccc(F)c3)C[C@H]2C1  cytotoxicity at 10 µM                -1.96
15  CCOc1nnc(CN(C)C2CCCN(c3ccc(C)nn3)C2)s1 (centres undefined)  cytotoxicity at 10 µM                 13.2
16  CCn1ccnc1CN1CCN(CC(O)CN2CCOCC2)CC1 (centres undefined)  cytotoxicity at 10 µM                -7.83
17          CN1CC[C@H](c2nnc(-c3cncn3C)o2)C1  cytotoxicity at 10 µM                -2.88
18  COCCNC(=O)[C@H]1C[C@@H]2CCN(c3ncccn3)C[C@@H]2O1  cytotoxicity at 10 µM               -0.785
19  Cc1cccc(CC2CCCN(C(=O)C3CCOCC3)C2)n1 (centres undefined)  cytotoxicity at 10 µM                 2.16
20    CC(C)CNC(=O)CNc1c(NCc2ccncc2)c(=O)c1=O  cytotoxicity at 10 µM                -4.44
21  CC(Cn1cccn1)NCc1nc(-c2cccnc2)no1 (centres undefined)  cytotoxicity at 10 µM               -0.813
22  CN1CCN(C2CCN(Cc3noc(-c4ccccc4)n3)CC2)C1=O  cytotoxicity at 10 µM                  9.5
23  COC(C(=O)NC1CC1)c1ccccc1 (centres undefined)  cytotoxicity at 10 µM                -3.73
24  CN(Cc1cnccn1)S(=O)(=O)N1CCCC1c1ccco1 (centres undefined)  cytotoxicity at 10 µM                -15.6
25  Cc1noc(C)c1CN1CC[C@@H]2O[C@H](COCC(C)C)CC[C@@H]21  cytotoxicity at 10 µM                 8.28
26   O=C(c1cccc(F)c1)N(CCCO)S(=O)(=O)c1cccs1  cytotoxicity at 10 µM                 3.51
27  O=C(c1ccccn1)N1CCC2(CCCN(c3nncs3)C2)C1 (centres undefined)  cytotoxicity at 10 µM                 -111
28  Cn1cccc1C(=O)N1CCC(O)(CN2CCc3ccccc3C2)C1 (centres undefined)  cytotoxicity at 10 µM                 3.77
